Value source: a protein production outcome set (Wang et al. 2014)

- ASSAY_OVERVIEW: label from the status in PepcDB records
READOUT_LABEL: protein production

record_sequence=AIAAASLGEFEWCVATNTFRISPRLAKLSGIPEGELDSQGGNALYAYIHPDDREAVRANIDRQLAQSGRFTAEYRRTPLEHGGETWNSVAGVMLMDADGQPSRLIGVVQDITPRKL reported=failed
record_sequence=MTTQSQFLVNLSYGGLASQSNLRANNRVSPSSCQITRTNRSWALPVSFKVEKFQLQRGRRRRGSPCFGESEGLVKNGIGDADGIIIVDHGSRRRESNLMLEEFVKMFKEKTGYPIVEPAHMELAEPSIKDAFSLCVQQGAKRVVVSPFFLFPGRHWHTDIPSLTADAAKEFSGISYLITAPLGPHNLLLDVVNDRIQHCLSHVEGDADECLVCAGTNKCKLYNSS reported=failed
record_sequence=MTQQNHLRGVLLASSACILWGISGVAASTLFINNPHLTAMWLTQVRMISAGLILLVWGMVAGKHPFKIWHHRHAAWTAVSYGLLGLIPVQLCYFEAVRVGNAPIATIIQFLGPFIISIYYFLFKHVTPSRIELIGMIMAFIGTLLIVTHGHLNSLAISPVILFWGGLSAIGVATNTLIPRTILPKYGALTVTGWGLLIAGLFLTLLQPMWRVHLTITWPQLGLLIVIILLGTVAPFLMFARSLSDILPTTASLMDAFEPLAATVFSITFLNVQLTSFDFIGGLLIILAVMALSLNTHKMLHFLRRRRAHSSS reported=failed

###

- ASSAY_OVERVIEW: label from the status in PepcDB records
READOUT_LABEL: protein production

record_sequence=MVPMASNNLAYIKLRLLSLLVGLGIAALASLIIYAVAYYLFGIYSIGIIFGVFVLVLMMDLLQWFIGPYIVDMVYRAKKADPNRYGNIIAIVEEVAKLNGIRPPTLYISEVSFPNAFAYESPIAGRRIAITRPLLGILNEDELRAVIGHEIGHLKHHDSAVIMAIGLIPTLIFYFAYTTLFAGDRRNGGSAIILALVLMVVSFLFNIMVLSVNRLRESYADANAALTIPNGARNLQTALAKIVRYGSSAKNTAASMLLFANYDMDREDVETLIDKWRTMRVGILSDLFSDHPHPAKRIRLLDKLQDSS reported=failed
record_sequence=MGHHHHHHSHMSHYRPELPAPRTDWSLSDVDQWDTAALADGIKSFLLALPAPLVTPEASAEARRALREAAGPVGPALEPPTLPLHRALTLRFLLQHLGRVARRAPALGPAVRALGATF reported=failed
record_sequence=MAETIQNFLTEYYSIAIPLSILINIIISLLGFIPSIFLTAINIQLFGVTNGTVISIAGEALGAIISFYIYRMGLQKFTHDKVNKYPKVERLLYVEGREAFLLVLSFRLIPFIPSSIVTLFAALGKMSLLSFSIASTIGKIPALLIEVYSAYHVMNGTNEAKWIVTIAGCIGLYYLWKKWRKK reported=failed

###

- ASSAY_OVERVIEW: label from the status in PepcDB records
READOUT_LABEL: protein production

Observe how each entry below is paired with its result.
record_sequence=MKVSVEIITGTFIDTDVSEDATVKQMKEKIAVEVKLPVTRLILVIGDEETRRLVMEDEDDMMLRDLGVGEDSHIYLFFKHPDLVSKEERSKGEDDDDPMEEVSSEAESGRGNEEEVEKAKIDGEEEDQAMKDEEEDRDVKVEEDEEEKEKEKDGEAKYVKEEAREVEEADNKQEN reported=failed
record_sequence=MGSSHHHHHHSSGLVPRGSPQQLVERLQEEKRIEAQKRKERQEAHLYMQVQIVAEDQFCGHQGNDMYDEEKVKYTVFKVLKNSSLAEFVQSLSQTMGFPQDQIRLWPMQARSNGTKRPAMLDNEADGNKTMIELSDNENPWTIFLET reported="not failed"
record_sequence=MATKARVMYDFAAEPGNNELTVTEGEIITVTNPNVGGGWLEGKNNKGEQGLVPTDYVEILPNDGKDPFSC reported="not failed"
record_sequence=MSAPSDTPTYLHGFSATEQARLLKQARLLETTLFNQIDYSGARRLLEVGSGVGAQTEILLRRFPELHVTGVDLSETQLDAARANLERLAWCRARYTLQQADASDLPFEARQFDAAFLCWVLEHVPSPARVLNEVRRVLLPGSPVYVTEVMNASFLLHPYSPSLWRYWMAFNDFQHDQGGDPFVGAKLGNLLLAGGFRDVHTQIKTLHLDNREPGRRKTMIGFWEEVLLSAADQLLQAGAVEAATVDGMRRELAQVHSDPDAVFFYSFVQARATVY reported=failed
record_sequence=MKQFVLFFISLFLLGVGARSQEMYQKKVFISSRGDSLNYRLLRPEVEKTGLQYPLVLFLHGAGERGSDNEKQLTHGGQMFLNPVNREKYPAFVLVPQCPEKDYWAYTSRPSSFIPSEMPVGQEITPVLRAVKELLDTYLDLPQVDRNRIYVVGLSMGGMATYDLAVRFPDTFAAAVPICGTVNPVRLADAANVRFRIFHGDADNVVPVEGSREAYKALKNLGAEVEYIEFPGCNHGSWNPAFNYPGFMEWLFAQRKR reported=failed

Respectfully, I request protein production for each entry included below.
1. KSEIGKYAPFFSLPNAKGEKITRSSDAFKQKSLLINFWASWNDSISQKQSNSELREIYKKYKKNKYIGMLGISLDVDKQQWKDAIKRDTLDWEQVCDFGGLNSEVAKQYSIYKIPANILLSSDGKILAKNLRGEELKKKIENIVEEA
2. GRDFAVDTKIETIGLTGSLSFKVNDNFSLGAGVIIQRTSGFVSQNLDLYASAANSPGMGGIPFPASNSSALMRVKVDNTSPGFFAGAVWKPTDRDTLGFAYHAKIRNKLKGHYNLYDHDGGLTEGAIEGGTPGLAYPGLDLRMGASASARLDIPAYASLDWVHQFNDRLSLGASATWTEWSSFQDLTLKSHGNTIVSIPYTYRNTWTLAVGGDYKVTDQWTMRAGVAYDQTPTHNATRDPRIPDGDRYFASLGAGYRFQSMPELSIDAAYSRQFVKEVPLKTV
3. MGHHHHHHSHPQLLHFVDQYREQLIARVTSVEVVLDKLHGQVLSQEQYERVLAENTRPSQMRKLFSLSQSWDRKCKDGLYQALKETHPHLIMELWEKGSKKGLLPLSS

Found:
1: not failed; 2: failed; 3: not failed
